Taken from patent US6515112B2.

Liver by entry:
- assay name: Animal biodistribution studies of 99mTc complexes in rats
- Type: in vivo, Male Sprague Dawley rats
- Design: unit not given here
- experimental setup: i.v. tail vein, Time P. I. 60
Reply with the value as a number alone.

* COCCC(CCOC)(CP(C)C)CP(C)C (99mTc complex, metal not drawn) | 4.35
* CP(C)COCP(C)C (99mTc complex, metal not drawn) | 5.95
* CCOCC(COCC)(CP(C)C)CP(C)C (99mTc complex, metal not drawn) | 14.7

Now take the following compound into account.
Q) If you can, please state the reported Liver value of `COCCOCC(COCCOC)(CP(C)C)CP(C)C` .
A) 9.08

====

- assay name: Solubility in solvents (observation)
- Type: physicochemical
- experimental setup: 99Tc complex, organic solvents
measure: solubility

• CN([N]=[Tc]([Cl])([Cl])([Cl])([P](c1ccccc1)(c1ccccc1)c1ccccc1)[P](c1ccccc1)(c1ccccc1)c1ccccc1)c1ccccc1 [Example 10, TcNNPhMe(PPh3)2Cl3] = reasonably soluble
• Clc1ccc(N=[N][Tc]([Cl])([N]=Nc2ccc(Cl)cc2)([PH](c2ccccc2)(c2ccccc2)c2ccccc2)[PH](c2ccccc2)(c2ccccc2)c2ccccc2)cc1 [Complex 9, [TcCl(NNC6H4Cl)2(PPh3)2]] = reasonably soluble

====

- assay name: Animal biodistribution studies of 99mTc complexes in rats
- Format: in vivo, Male Sprague Dawley rats
- Parameters: unit not given here
- experimental setup: i.v. tail vein, Time P. I. 2
measure: Lung
Output spec: single numeric token, no unit.

Consider the following illustrative entries.
• CP(C)COCP(C)C (99mTc complex, metal not drawn) [PL28] = 1.18
• CCOCC(COCC)(CP(C)C)CP(C)C (99mTc complex, metal not drawn) [PL42] = 2.56
• COCCC(CCOC)(CP(C)C)CP(C)C (99mTc complex, metal not drawn) [PL50] = 1.02

Now look at this one.
Q) // query Lung value for entry COCCOCC(COCCOC)(CP(C)C)CP(C)C [PL43]
A) 1.47

====

- assay name: Stability to air and moisture (observation)
- Type: physicochemical
- experimental setup: 99Tc complex, isolated solid
measure: stability to air / moisture

• Clc1ccc(N=[N][Tc]([Cl])([N]=Nc2ccc(Cl)cc2)([PH](c2ccccc2)(c2ccccc2)c2ccccc2)[PH](c2ccccc2)(c2ccccc2)c2ccccc2)cc1 [Complex 9, [TcCl(NNC6H4Cl)2(PPh3)2]] = air-stable
• CN([N]=[Tc]([Cl])([Cl])([Cl])([P](c1ccccc1)(c1ccccc1)c1ccccc1)[P](c1ccccc1)(c1ccccc1)c1ccccc1)c1ccccc1 [Example 10, TcNNPhMe(PPh3)2Cl3] = air-stable
• [N]#[Tc]([Cl])([Cl])([P](c1ccccc1)(c1ccccc1)c1ccccc1)[P](c1ccccc1)(c1ccccc1)c1ccccc1 [Example 7, TcNCl2(Ph3)2] = air-stable

====

- assay name: Animal biodistribution studies of 99mTc complexes in rats
- Assay type: in vivo, Male Sprague Dawley rats
- Parameters: unit not given here
- experimental setup: i.v. tail vein, Time P. I. 2
measure: Heart

// known answers, use as guide
• COCCOCC(COCCOC)(CP(C)C)CP(C)C = 0.55
• COCCC(CCOC)(CP(C)C)CP(C)C (99mTc complex, metal not drawn) = 0.83
• CCOCC(COCC)(CP(C)C)CP(C)C (99mTc complex, metal not drawn) = 1.22

As a next step, examine the compound that follows.
Q) So what's the measured Heart for this one? CP(C)COCP(C)C (99mTc complex, metal not drawn)
A) 1.12
